tested on: TK-10 renal; experiment: NCI tumour cell line growth inhibition, 48 h
measured endpoint: GI50

- smiles record: "CO/N=C(\\COc1ccc2c(c1)oc(=O)c1cc(OC)ccc12)c1ccc(F)cc1"
  GI50: "14.7 µM"
- smiles record: "COc1ccc(Cn2cc3c(c2-c2ccc(O)cc2)CCc2cnoc2-3)cc1"
  GI50: "0.603 µM"
- smiles record: "O[C@@H]1CCCN1Cc1cc2cc3c(cc2c2cc(OCc4ccccc4)ccc12)OCO3"
  GI50: "5.85 µM"
- smiles record: "C=C(C)[C@@H]1CC[C@]2(C(=O)O)CC[C@]3(C)[C@H](CC[C@@H]4[C@@]5(C)C[C@@H](CC#Cc6ccc(Br)cc6)C(=O)C(C)(C)[C@@H]5CC[C@]43C)[C@@H]12"
  GI50: "23.7 µM"

Proceed to the following item.
Looking up "O=C1/C(=C/c2ccc(Cl)cc2)CN(Cc2cn(CCNc3ccnc4cc(Cl)ccc34)nn2)C/C1=C\c1ccc(Cl)cc1" , I see its GI50 listed as 0.483 µM
